target: exon 20 T790M mutant-type EGFR enzyme (Homo sapiens, UniProt P00533, T790M)
Sequence (P00533 25-1210 T790M): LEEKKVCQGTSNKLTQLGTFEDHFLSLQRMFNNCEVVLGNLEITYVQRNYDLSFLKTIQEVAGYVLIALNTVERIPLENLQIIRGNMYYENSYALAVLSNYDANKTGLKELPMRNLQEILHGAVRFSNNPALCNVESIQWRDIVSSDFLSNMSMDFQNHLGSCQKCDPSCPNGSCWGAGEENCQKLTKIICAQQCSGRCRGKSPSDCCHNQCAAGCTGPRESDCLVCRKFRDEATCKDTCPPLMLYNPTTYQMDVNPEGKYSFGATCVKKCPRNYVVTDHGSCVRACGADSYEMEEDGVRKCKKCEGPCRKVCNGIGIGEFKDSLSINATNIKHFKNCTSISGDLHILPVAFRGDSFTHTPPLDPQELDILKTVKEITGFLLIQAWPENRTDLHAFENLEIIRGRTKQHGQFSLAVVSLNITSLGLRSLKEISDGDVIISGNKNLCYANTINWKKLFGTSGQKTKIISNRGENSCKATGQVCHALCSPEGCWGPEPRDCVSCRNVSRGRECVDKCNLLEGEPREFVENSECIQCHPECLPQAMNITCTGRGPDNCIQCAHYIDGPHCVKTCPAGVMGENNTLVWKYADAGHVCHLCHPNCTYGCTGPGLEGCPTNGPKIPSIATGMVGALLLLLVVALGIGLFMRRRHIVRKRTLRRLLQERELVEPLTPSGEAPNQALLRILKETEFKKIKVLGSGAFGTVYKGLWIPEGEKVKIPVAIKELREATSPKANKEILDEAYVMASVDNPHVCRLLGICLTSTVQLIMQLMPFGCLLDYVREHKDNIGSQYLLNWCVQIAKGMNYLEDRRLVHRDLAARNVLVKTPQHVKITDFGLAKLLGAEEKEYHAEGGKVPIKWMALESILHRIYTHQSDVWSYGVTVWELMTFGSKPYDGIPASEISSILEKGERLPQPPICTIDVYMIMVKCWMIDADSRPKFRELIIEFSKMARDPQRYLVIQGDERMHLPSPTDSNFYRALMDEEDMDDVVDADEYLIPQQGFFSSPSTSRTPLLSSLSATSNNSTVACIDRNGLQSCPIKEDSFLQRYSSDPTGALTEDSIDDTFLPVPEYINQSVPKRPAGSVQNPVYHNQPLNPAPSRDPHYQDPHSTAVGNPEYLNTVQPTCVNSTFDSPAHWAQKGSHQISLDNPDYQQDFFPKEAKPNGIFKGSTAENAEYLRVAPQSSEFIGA
assay name: Enzymologic experiment of T790M mutant-type EGFR (TR-FRET)
Type: biochemical
conditions used: T790M EGFR enzyme, TR-FRET, ATP 1 to 10 uM
quantity kind: IC50 (nM)

Worked cases, answers included:
- smiles code: "C=CC(=O)Nc1cc(Nc2nccc(-c3cn(C)c4cc(F)cc(F)c34)n2)c(OC)cc1N(C)CCN(C)C"
  target: "exon 20 T790M mutant-type EGFR enzyme (Homo sapiens, UniProt P00533, T790M)"
  unit spec: "nM"
  IC50: 16.5
- smiles code: "C=CC(=O)Nc1cc(Nc2nccc(-c3cn(C)c4ccc(F)c(F)c34)n2)c(OC)cc1N(C)CCN(C)C"
  target: "exon 20 T790M mutant-type EGFR enzyme (Homo sapiens, UniProt P00533, T790M)"
  unit spec: "nM"
  IC50: 1.14

1 = C=CC(=O)Nc1cc(Nc2nccc(-n3ncc4ccccc43)n2)c(OC)cc1N(C)CCN(C)C
2 = C=CC(=O)Nc1cc(Nc2ncc(C(F)(F)F)c(-n3nc(C)c4cc(OC)ccc43)n2)c(OC)cc1N(C)CCN(C)C
Which entry shows the lesser value of IC50 here, 1 or 2 ? Record your answer as the label of the chosen record.
1
(1: 0.39 nM, 2: 0.76 nM)

---

target: wild-type EGFR enzyme (Homo sapiens)
Sequence (P00533 25-1210): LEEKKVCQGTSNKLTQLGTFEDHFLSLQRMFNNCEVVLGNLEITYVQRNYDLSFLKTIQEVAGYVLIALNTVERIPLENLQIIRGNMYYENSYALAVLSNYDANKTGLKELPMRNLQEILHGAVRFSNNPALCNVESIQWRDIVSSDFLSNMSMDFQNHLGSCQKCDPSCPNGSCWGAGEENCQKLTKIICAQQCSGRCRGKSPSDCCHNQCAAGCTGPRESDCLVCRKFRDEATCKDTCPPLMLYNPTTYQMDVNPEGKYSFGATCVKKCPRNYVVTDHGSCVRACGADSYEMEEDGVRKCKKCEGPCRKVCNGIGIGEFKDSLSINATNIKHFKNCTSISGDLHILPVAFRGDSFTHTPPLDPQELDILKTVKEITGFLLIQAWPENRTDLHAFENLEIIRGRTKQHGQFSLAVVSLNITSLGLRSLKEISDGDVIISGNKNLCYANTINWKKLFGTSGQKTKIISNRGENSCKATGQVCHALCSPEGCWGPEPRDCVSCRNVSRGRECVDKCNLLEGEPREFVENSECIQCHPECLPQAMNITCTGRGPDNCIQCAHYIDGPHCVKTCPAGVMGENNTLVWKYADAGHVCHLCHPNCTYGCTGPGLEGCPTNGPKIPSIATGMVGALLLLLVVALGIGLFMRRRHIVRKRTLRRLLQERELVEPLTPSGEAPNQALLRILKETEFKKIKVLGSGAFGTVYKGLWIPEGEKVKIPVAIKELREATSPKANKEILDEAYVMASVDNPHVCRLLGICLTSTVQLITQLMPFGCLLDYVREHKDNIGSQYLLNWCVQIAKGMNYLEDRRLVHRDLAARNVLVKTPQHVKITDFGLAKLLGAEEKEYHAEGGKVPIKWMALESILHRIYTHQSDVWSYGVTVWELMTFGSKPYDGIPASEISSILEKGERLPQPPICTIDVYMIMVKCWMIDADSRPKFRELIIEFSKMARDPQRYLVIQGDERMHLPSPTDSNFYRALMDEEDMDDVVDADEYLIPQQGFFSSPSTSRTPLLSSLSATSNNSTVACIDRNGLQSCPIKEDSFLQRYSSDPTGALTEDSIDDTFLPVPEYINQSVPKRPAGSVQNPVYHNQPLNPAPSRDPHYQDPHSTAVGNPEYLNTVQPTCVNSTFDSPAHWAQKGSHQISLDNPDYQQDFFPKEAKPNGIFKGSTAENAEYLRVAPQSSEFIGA
assay name: Enzymologic experiment of wild-type (WT) EGFR (TR-FRET)
Type: biochemical
conditions used: ATP 0.1 to 5 uM
quantity kind: IC50 (nM)

P = C=CC(=O)Nc1cc(Nc2ncc(Cl)c(-n3nc(OC)c4cc(Cl)ccc43)n2)c(OC)cc1N(C)CCN(C)C
Q = C=CC(=O)Nc1cc(Nc2ncc(C(F)(F)F)c(-n3cnc4ccc(OC)cc43)n2)c(OC)cc1N(C)CCN(C)C
Which entry shows the lesser value of IC50 here, P or Q ? Record your answer as the label of the chosen record.
P

I = C#Cc1ccc2c(-c3ccnc(Nc4cc(NC(=O)C=C)c(N(C)CCN(C)C)cc4OC)n3)cn(C)c2c1
II = C=CC(=O)Nc1cc(Nc2ncc(Cl)c(-c3cn(C)c4ccccc34)n2)c(OC(F)F)cc1N(C)CCN(C)C
Field: entry with larger IC50 (options I / II ). Record your answer as the label of the chosen record.
I
(I: 5.35 nM, II: 0.8 nM)

---

target: UniProt:P00533
assay name: Enzymologic experiment of wild-type (WT) EGFR (TR-FRET)
Type: biochemical
conditions used: ATP 0.1 to 5 uM
quantity kind: IC50 (nM)

- smiles code: "C=CC(=O)Nc1cc(Nc2ncc(C(F)(F)F)c(-c3cn(S(=O)(=O)N(C)C)c4cc(OC)ccc34)n2)c(OC)cc1N(C)CCN(C)C"
  IC50 / nM: 4.18
- smiles code: "C=CC(=O)Nc1cc(Nc2nccc(-c3cn(C)c4cc(F)c(F)cc34)n2)c(OC)cc1N(C)CCN(C)C"
  IC50 / nM: 1.89
- smiles code: "C=CC(=O)Nc1cc(Nc2nccc(-n3cnc4cc(OC)ccc43)n2)c(OC)cc1N(C)CCN(C)C"
  IC50 / nM: 4.44
- smiles code: "C=CC(=O)Nc1cc(Nc2nccc(-c3cn(C4CC4)c4ccccc34)n2)c(OC)cc1N(C)CCN1CCOCC1"
  IC50 / nM: 190
- smiles code: "C=CC(=O)Nc1cc(Nc2nccc(-c3cn(C)c4ccc(F)c(F)c34)n2)c(OC)cc1N(C)CCN(C)C"
  IC50 / nM: 4.91

A = C=CC(=O)Nc1cc(Nc2nccc(-c3cn(C4CC4)c4ccccc34)n2)c(OC(F)F)cc1N(C)CCN(C)C
B = C=CC(=O)Nc1cc(Nc2nccc(-n3ncc4cc(OCC)ccc43)n2)c(OC)cc1N(C)CCN(C)C
Which entry shows the lesser value of IC50 here, A or B ? Record your answer as the label of the chosen record.
B
